All values here come from patent US20110105422A1.

# System: A204 (rhabdomyosarcoma)
# assay: SRB assay, paediatric cancer cell line A204
# Assay type: cell-based
# experimental parameters: 6-day SRB, average of at least two experiments
pIC50: −log10 of the molar value.

# substance, pIC50
records = [
    ("AS1411: G-rich oligonucleotide, SEQ ID No: 1, 5′-GGTGGTGGTGGTTGTGGTGGTGGTGG-3′", 8.59),
]

----------
# Tested on: Raji cells
# assay: Sulphorhodamine B (SRB) assay, Raji
# Format: cell-based, human
# experimental parameters: Homo sapiens, in combination with 2.5 μM AS1411, read-out: Doxorubicin IC50, In combination with 2.5 μM AS1411
pIC50: −log10 of the molar value.
measurement name: pIC50

# molecule, number
measured = [
    ("COc1cccc2c1C(=O)c1c(O)c3c(c(O)c1C2=O)C[C@@](O)(C(=O)CO)C[C@@H]3O[C@@H]1CC(N)[C@@H](O)C(C)O1 (stereo partly shown) [Doxorubicin]", 6.49),
]

----------
# Tested on: Raji cells
# assay: Sulphorhodamine B (SRB) assay, Raji
# Format: cell-based, human
# experimental parameters: 6 days, SRB, AS1411 without doxorubicin, read-out: Mean IC50

# substance, IC50 [µM]
data = [
    ("AS1411: G-rich oligonucleotide, SEQ ID No: 1, 5′-GGTGGTGGTGGTTGTGGTGGTGGTGG-3′", 4.94),
]

----------
# Tested on: SUP-B15 (ALL) cells
# assay: SRB assay, paediatric cancer cell line SUP-B15
# Format: cell-based
# experimental parameters: SUP-B15, acute lymphoblastic leukaemia (ALL); 6-day SRB; average of at least two experiments
pIC50: −log10 of the molar value.
measurement name: pIC50

# substance, number
records = [
    ("AS1411: G-rich oligonucleotide, SEQ ID No: 1, 5′-GGTGGTGGTGGTTGTGGTGGTGGTGG-3′", 8.64),
]

----------
# Test system: KG-1 cells
# assay: Sulphorhodamine B (SRB) assay, KG-1
# Format: cell-based
# experimental parameters: KG-1, 6 days, AS1411 without doxorubicin

# substance, IC50 / µM
records = [
    ("AS1411: G-rich oligonucleotide, SEQ ID No: 1, 5′-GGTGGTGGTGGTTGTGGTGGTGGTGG-3′", 2.32),
]

----------
# Test system: R-1059-D (osteosarcoma)
# assay: SRB assay, paediatric cancer cell line R-1059-D
# Assay type: cell-based
# experimental parameters: 6-day SRB, average of at least two experiments
pIC50: −log10 of the molar value.
measurement name: pIC50

# substance, measurement name, number
records = [
    ("AS1411: G-rich oligonucleotide, SEQ ID No: 1, 5′-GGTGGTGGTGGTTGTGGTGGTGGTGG-3′", "pIC50", 8.33),
]

----------
# Tested on: Namalwa cells
# assay: Sulphorhodamine B (SRB) assay, Namalwa
# Format: cell-based, human
# experimental parameters: Namalwa, 6 days, SRB; AS1411 without doxorubicin; read-out: Mean IC50
# Description: Cells of the types described above were seeded in wells of a 96-well plate at a number optimised for each cell line. […] Cells were then washed, fixed to the 96-well plate with 16% TCA and exposed to the dye Sulphorhodamine B (SRB; available from Sigma-Aldrich, Dorset, UK; catalogue number S-1402). The optical density of the remaining cell mass after exposure to AS1411 was measured in a microplate spectrophotometer and IC50 determined. […]

# substance, IC50, µM
measured = [
    ("AS1411: G-rich oligonucleotide, SEQ ID No: 1, 5′-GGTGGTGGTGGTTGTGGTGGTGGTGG-3′", 3.2),
]

----------
# Tested on: MV4-11 (AML) cells
# assay: SRB assay, paediatric cancer cell line MV4-11
# Assay type: cell-based
# experimental parameters: MV4-11, acute myelogenous leukaemia (AML); 6-day SRB; average of at least two experiments

# substance, target system, IC50
data = [
    ("AS1411: G-rich oligonucleotide, SEQ ID No: 1, 5′-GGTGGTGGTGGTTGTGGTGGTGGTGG-3′", "MV4-11 (AML) cells", "2.1 nM"),
]

----------
# Tested on: KG-1 cells
# assay: Sulphorhodamine B (SRB) assay, KG-1
# Format: cell-based
# experimental parameters: Homo sapiens, 144 h, KG-1, 6 days, IC50 as doxorubicin concentration, alone or with fixed AS1411
pIC50: −log10 of the molar value.

# compound, target system, pIC50
records = [
    ("COc1cccc2c1C(=O)c1c(O)c3c(c(O)c1C2=O)C[C@@](O)(C(=O)CO)C[C@@H]3O[C@@H]1CC(N)[C@@H](O)C(C)O1 (stereo partly shown)", "KG-1 cells", 5.31),
]

----------
# System: K562 cells
# assay: Sulphorhodamine B (SRB) assay, K562
# Type: cell-based
# experimental parameters: K562, 6 days, AS1411 without doxorubicin
# Method: Cells of the types described above were seeded in wells of a 96-well plate at a number optimised for each cell line. […] Cells were then washed, fixed to the 96-well plate with 16% TCA and exposed to the dye Sulphorhodamine B (SRB; available from Sigma-Aldrich, Dorset, UK; catalogue number S-1402). The optical density of the remaining cell mass after exposure to AS1411 was measured in a microplate spectrophotometer and IC50 determined. […]
measurement name: IC50 (µM)

# substance, unit descriptor, number
rows = [
    ("AS1411: G-rich oligonucleotide, SEQ ID No: 1, 5′-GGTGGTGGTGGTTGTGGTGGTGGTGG-3′", "µM", 7.03),
]
